The origin of these recorded values is patent US6972296B2.

Target: α4β1 integrin (Homo sapiens, UniProt P05556+P13612)
Construct: endogenous in cells; host or cells: Ramos cells
Sequence (P13612 34-1032): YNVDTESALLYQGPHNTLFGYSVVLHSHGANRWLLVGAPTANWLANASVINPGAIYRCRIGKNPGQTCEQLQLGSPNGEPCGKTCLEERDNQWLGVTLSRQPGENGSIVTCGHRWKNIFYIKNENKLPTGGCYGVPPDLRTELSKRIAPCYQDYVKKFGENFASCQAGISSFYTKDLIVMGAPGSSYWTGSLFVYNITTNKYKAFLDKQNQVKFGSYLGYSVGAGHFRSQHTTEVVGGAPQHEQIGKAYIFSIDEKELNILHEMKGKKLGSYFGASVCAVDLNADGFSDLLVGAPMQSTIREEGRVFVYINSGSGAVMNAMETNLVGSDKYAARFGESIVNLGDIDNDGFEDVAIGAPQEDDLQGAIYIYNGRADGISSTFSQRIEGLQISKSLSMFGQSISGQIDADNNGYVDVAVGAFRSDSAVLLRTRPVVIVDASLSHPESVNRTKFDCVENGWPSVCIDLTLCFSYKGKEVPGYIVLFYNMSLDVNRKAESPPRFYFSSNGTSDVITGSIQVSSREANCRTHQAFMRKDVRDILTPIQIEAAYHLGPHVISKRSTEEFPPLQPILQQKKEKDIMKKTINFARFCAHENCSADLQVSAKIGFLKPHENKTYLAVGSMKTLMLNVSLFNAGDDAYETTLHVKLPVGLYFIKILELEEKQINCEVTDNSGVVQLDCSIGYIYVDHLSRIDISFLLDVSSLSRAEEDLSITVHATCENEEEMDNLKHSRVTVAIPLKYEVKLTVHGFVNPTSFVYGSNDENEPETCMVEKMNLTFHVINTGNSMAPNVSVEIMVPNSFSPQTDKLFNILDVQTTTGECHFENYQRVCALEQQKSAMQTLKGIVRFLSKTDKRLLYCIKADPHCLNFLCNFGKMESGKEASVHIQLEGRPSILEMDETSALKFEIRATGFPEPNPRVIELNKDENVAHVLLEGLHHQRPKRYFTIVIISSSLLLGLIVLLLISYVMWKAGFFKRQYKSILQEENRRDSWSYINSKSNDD
Sequence (P05556 21-798): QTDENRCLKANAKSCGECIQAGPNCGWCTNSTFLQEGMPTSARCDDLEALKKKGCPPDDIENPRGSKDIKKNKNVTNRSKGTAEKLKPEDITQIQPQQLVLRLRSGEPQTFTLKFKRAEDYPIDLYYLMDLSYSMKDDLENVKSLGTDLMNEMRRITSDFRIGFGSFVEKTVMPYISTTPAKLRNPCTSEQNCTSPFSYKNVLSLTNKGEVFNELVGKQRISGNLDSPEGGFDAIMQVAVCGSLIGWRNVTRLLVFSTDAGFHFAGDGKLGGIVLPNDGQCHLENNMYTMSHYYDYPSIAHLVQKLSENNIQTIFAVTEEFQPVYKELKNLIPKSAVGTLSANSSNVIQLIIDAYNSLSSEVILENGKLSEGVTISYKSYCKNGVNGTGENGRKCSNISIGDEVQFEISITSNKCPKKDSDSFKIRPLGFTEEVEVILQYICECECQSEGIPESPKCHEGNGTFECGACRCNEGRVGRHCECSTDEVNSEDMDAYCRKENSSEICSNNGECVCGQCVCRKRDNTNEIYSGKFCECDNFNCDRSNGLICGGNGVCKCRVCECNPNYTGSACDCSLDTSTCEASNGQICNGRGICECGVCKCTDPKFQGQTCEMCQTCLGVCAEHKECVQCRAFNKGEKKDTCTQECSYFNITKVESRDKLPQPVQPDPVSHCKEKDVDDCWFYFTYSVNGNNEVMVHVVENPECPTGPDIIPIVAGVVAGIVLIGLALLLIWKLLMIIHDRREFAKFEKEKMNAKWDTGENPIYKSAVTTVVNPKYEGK
Assay: Adhesion of calcein-labeled Ramos cells to CS1 (fibronectin) peptide conjugated ovalbumin
Type: cell-based
Conditions: Table 3; Ramos cell adhesion to CS1 conjugated ovalbumin, 30 minutes at 37° C.
Property label: IC50 (nM)

A selection of reference data follows.
Cc1ccc([C@H](CC(=O)O)NC(=O)Nc2c(-c3ccccc3)ccn(Cc3ccccc3Cl)c2=O)cc1 : 10
Cc1ccc([C@H](CC(=O)O)NC(=O)Nc2c(C)ccn(Cc3ccccc3Cl)c2=O)cc1 : 5
Cc1ccc([C@H](CC(=O)O)NC(=O)Nc2c(NC(C)(C)C)ccn(Cc3ccccc3Cl)c2=O)cc1 : 3
O=C(O)CC(NC(=O)Nc1c(O)ccn(Cc2ccccc2Cl)c1=O)c1cccc(Cl)c1 (stereo not drawn) : 30
Cc1ccc([C@H](CC(=O)O)NC(=O)Nc2cc(C)cn(Cc3ccccc3Cl)c2=O)cc1 : 70
COc1ccc([C@H](CC(=O)O)NC(=O)Nc2c(C)ccn(Cc3ccccc3Cl)c2=O)cc1C : 15

A: O=C(O)C[C@H](NC(=O)Nc1c(O)ccn(Cc2ccccc2Cl)c1=O)c1ccc(F)cc1
B: COCCOCCOc1ccn(Cc2ccccc2Cl)c(=O)c1NC(=O)N[C@@H](CC(=O)O)c1ccc(C)cc1
[ask] Field: entry with larger IC50 (options A / B ). Answer by stating the label of the chosen item.
[reply] A
(A: 30 nM, B: 2 nM)
